# Target Under Test: BTK (Homo sapiens, UniProt Q06187)
# Sequence (Q06187 402-655 limits assumed): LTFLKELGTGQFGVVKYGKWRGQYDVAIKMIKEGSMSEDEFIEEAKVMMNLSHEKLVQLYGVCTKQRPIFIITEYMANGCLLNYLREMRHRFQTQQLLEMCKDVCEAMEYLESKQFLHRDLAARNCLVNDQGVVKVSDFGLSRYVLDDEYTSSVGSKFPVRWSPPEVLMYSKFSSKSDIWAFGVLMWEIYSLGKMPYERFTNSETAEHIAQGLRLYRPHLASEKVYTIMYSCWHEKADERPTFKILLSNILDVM
# Protocol Description: biochemical
# Run Parameters: read-out: BTK inhibition (%), 0.75 uM BTK, […] probe 3l, 15 min preincubation

{"Compound": "CN1CCc2nc(C(=O)N[C@@H]3C[C@@H](C(=O)N(C)C)CC[C@@H]3NC(=O)C(=O)Nc3ccc(Cl)cn3)sc2C1", "Unit Spec": "%", "inhibition at 10 µM": -4.6}
{"Compound": "CCc1c2c(nc3ccc(O)cc13)-c1cc3c(c(=O)n1C2)COC(=O)[C@]3(O)CC", "Unit Spec": "%", "inhibition at 10 µM": -28.8}
{"Compound": "C=C[C@H]1CN2CC[C@]3(C(=O)Nc4ccccc43)[C@@H]2C[C@@H]1/C(=C\\OC)C(=O)OC", "Unit Spec": "%", "inhibition at 10 µM": 6.2}
{"Compound": "Cc1coc2c1C(=O)C(=O)c1c-2ccc2c(C)cccc12", "Unit Spec": "%", "inhibition at 10 µM": -3.9}
{"Compound": "COC(=O)C1=CO[C@@H](O)[C@@H]2C(CO)=CC[C@H]12", "Unit Spec": "%", "inhibition at 10 µM": -1.6}
{"Compound": "C[C@@H]1CC[C@H]2C(C)(C)C3CC12CC[C@@]3(C)O (some centres unmarked)", "Unit Spec": "%", "inhibition at 10 µM": 8.6}
{"Compound": "CS(=O)(=O)N1CCN(Cc2cc3nc(-c4cccc5[nH]ncc45)nc(N4CCOCC4)c3s2)CC1", "Unit Spec": "%", "inhibition at 10 µM": -15.9}
{"Compound": "Clc1ccc(Nc2nnc(Cc3ccncc3)c3ccccc23)cc1", "Unit Spec": "%", "inhibition at 10 µM": -14.5}
